# Assay system: Endonuclease 4 (Escherichia coli (strain K12))
# Measurement notes: Counterscreen for APE1 Inhibitors: qHTS Validation Assay for Inhibitors of Endonuclease IV (AID 1708)
# Test conditions: E. coli endonuclease IV, DNA cleavage fluorescence; series mostly up to 57.1 µM
# Description: Assay Provider: David M. Wilson, III, National Institute on Aging, NIH Screening Center PI: Austin, C.P. Screening Center: NIH Chemical Genomics Center [NCGC] […] Three uL of enzyme were dispensed to 1536-well Greiner black solid bottom plates. […] The plates were immediately transferred into ViewLux High-throughput CCD imager (Perkin-Elmer) in order to measure the reaction progress in kinetic mode (three reads every 60 seconds) using 525 nm excitation and 598 nm emission fluorescence protocol. […]
Inconclusive results are not listed. Active and inactive are the calls of the source. Calls come from the whole dose curve; as a rule, active = well fitted inhibition curve with a large enough effect; inconclusive = small, poorly fitted or top-dose-only effect; inactive = no such curve, though single readings can be large or run the other way.
API: response.call in Y for active, N for inactive

These recorded examples may help you get a feel for the data.
compound="CC1Cc2cc3c(cc2C(c2ccc(N)cc2)=NN1)OCO3 (stereo not given)" label=N
compound=CCN1C[C@]2(C)CC[C@H](O)[C@@]34[C@@H]5C[C@@H]6[C@@H](OC)C[C@@](O)(C5[C@H]6O)[C@@H](C[C@@H]23)[C@@H]14 label=N
compound=CN1C[C@@H](CS(=O)(=O)N(C)C)C[C@@H]2c3cccc4c3c(cn4C)C[C@H]21 label=N
compound="CCCN1CCCC(c2cccc(O)c2)C1 (stereo not given)" label=N
compound="CCCN1CCc2cc(O)cc3c2C1Cc1ccc(O)c(O)c1-3 (stereo not given)" label=N
compound=N.N.N.N.N.N.N.N.N.N.N.N.N.N.O.O.[Cl-].[Cl-].[Cl-].[Cl-].[Cl-].[Cl-].[Ru].[Ru].[Ru] label=Y
compound="C[C@]12CC[C@H]3[C@@H](CCC4C[C@H](O)CC[C@@]43C)[C@@H]1CC[C@@H]2O (stereo not given in full)" label=N
compound="COc1ccc2c3c1O[C@H]1C(=O)CC[C@@]4(O)C(C2)N(CC2CC2)CCC314 (stereo not given in full)" label=N

Incoming: Assay result, entry "Nc1ncnc2c1ncn2[C@@H]1O[C@H](COP(=O)(O)CP(=O)(O)OP(=O)(O)O)[C@H](O)[C@H]1O" — outcome?
Outgoing: N

Incoming: Item: CCCN1CCc2cccc3c2C1Cc1ccc(O)c(O)c1-3 (stereo not given)
Outgoing: N

Incoming: Try this compound too: "CCCN1CCC[C@@H](c2cccc(C#N)c2)C1"
Outgoing: N

Incoming: And "NNCc1cccc(O)c1" ?
Outgoing: N

Incoming: // repeat for CCCC[N+]1(C)C2CC(OC(=O)C(CO)c3ccccc3)CC1C1OC12 (stereo not given) and report
Outgoing: N

Incoming: Now consider "N#CC(=Cc1ccc(O)c(O)c1)C(N)=S" .
Outgoing: N

Incoming: What about CCCCN1C2CCC1CC(OC(c1ccc(F)cc1)c1ccc(F)cc1)C2 (stereo not given) ?
Outgoing: N

====

Please go through the items and note down their max response.
# Assay system: Nuclear receptor subfamily 1 group I member 2 (Rattus norvegicus)
# Measurement notes: qHTS assay for small molecule activators of the rat pregnane X receptor (rPXR) signaling pathway (AID 651751); note: 0% is about no effect
# Test conditions: rPXR reporter cells, luciferase (One-Glo), 24 h
Calls of active or inactive are those of the source. The rule behind the calls is not given here.

Please review the entries below; each comes with its answer.
compound=CCCCCCCC(=O)Cl endpoint_name="max response" observed_measurement="5.82% (inactive)"
compound=O=C1C(Cl)=C(Cl)C(=O)C(Cl)=C1Cl endpoint_name="max response" observed_measurement="-2.19% (inactive)"
compound="CCc1cccc(C)c1N(C(=O)CCl)C(C)COC (stereo not drawn)" endpoint_name="max response" observed_measurement="14% (inactive)"
compound=C=CCOC(C)=O endpoint_name="max response" observed_measurement="-1.67% (inactive)"
compound=CC(C)N1C(=O)c2ccccc2NS1(=O)=O endpoint_name="max response" observed_measurement="-1.76% (inactive)"

Go through the list and state max response for each entry.
1. CCS(=O)CCSP(=O)(OC)OC (stereo not drawn)
2. Nc1ccc(Br)cc1
3. O=C(O)COc1ccc(Cl)cc1Cl
4. c1nc[nH]n1
5. Nc1ccccc1Cl

Outgoing:
1. -2.51% (inactive)
2. -3.71% (inactive)
3. -0.13% (inactive) [middle of 4 runs]
4. 0.756% (inactive)
5. 9.37% (inactive)

====

# Test system: CP269
# Measurement notes: qHTS profiling for inhibitors of Plasmodium falciparum proliferation (AID 504749); note: nearly all actives have a fitted effect of over 60% in size
# Test conditions: P. falciparum in erythrocytes, SYBR Green DNA, 72 h; series mostly up to 28.7 µM
Records with an inconclusive call do not appear. Activity calls are given as the source filed them. The call rests on the fitted dose curve; in most records, active means well fitted inhibition curve with a large enough effect; inconclusive means small, poorly fitted or top-dose-only effect; inactive means flat fitted curve, though single readings scatter.
Pick from active, inactive when you respond.

compound=CC[C@@]1(c2ccc(N)cc2)CCC(=O)NC1=O label=inactive
compound="O=[As]O[As]=O (stereo not given)" label=active
compound=COc1cc(N)c(Cl)cc1C(=O)N[C@@H]1CN2CCC1CC2 label=inactive
compound="CNC(C)[C@@H](O)c1ccccc1 (stereo not given in full)" label=inactive

Incoming: Dear all, I need the recorded test outcome for COc1cc2c(cc1OC)[C@@]13CCN4CC5=CCOC6CC(=O)N2C1[C@H]6[C@@H]5C[C@@H]43 (stereo not given in full) , thank you.
Outgoing: inactive

Incoming: Entry "C#CCN(C)[C@@H](C)Cc1ccccc1" please
Outgoing: inactive

Incoming: Try this compound next: C[N+]1(C)[C@@H]2CC[C@H]1CC(OC(=O)[C@@H](CO)c1ccccc1)C2 (stereo not given in full)
Outgoing: inactive

Incoming: What do you get for "CO[C@@H](COC(N)=O)C1=C(N2CC2)C(=O)C(C)=C(N2CC2)C1=O" ?
Outgoing: active

Incoming: Then ClC1=C(Cl)C2(Cl)C3C4CC(C5OC45)C3C1(Cl)C2(Cl)Cl (stereo not given) ?
Outgoing: inactive

Incoming: Next compound up: CCCC[N+]1(C)C2CC(OC(=O)C(CO)c3ccccc3)CC1C1OC12 (stereo not given)
Outgoing: inactive

====

# Assay system: Rap guanine nucleotide exchange factor 4 (Homo sapiens)
# Measurement notes: Confirmatory qHTS for agonist of cAMP-regulated guanine nucleotide exchange factor 4 (EPAC2) (AID 1645884);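 note: nucleotide exchange releases bodipy-GDP from Rap1 and this lowers its fluorescence; % is set by controls: 0 for no effect and ±100 for the full control effect; nearly all actives have a fitted effect of over 65% in size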
# Test conditions: EPAC2 GEF activity, Rap1B-BODIPY-GDP fluorescence; series mostly up to 154 µM
Records with an inconclusive call do not appear. Calls of active or inactive are those of the source. Calls follow the shape of the dose curve; as a rule, active = well fitted activation curve with a large enough effect; inconclusive = small, poorly fitted or top-dose-only effect; inactive = no such curve, though single readings can be large or run the other way.
Endpoint name: activation

Solved entries:
molecule=Cc1ccccc1OCC(=O)N1CCN(CCc2ccccn2)CC1 endpoint_name=activation observed_measurement=inactive
molecule="COC1C(OC(=O)c2ccc(C)[nH]2)C(O)C(Oc2ccc3c(O)c(NC(=O)c4ccc(O)c(CC=C(C)C)c4)c(=O)oc3c2Cl)OC1(C)C (configuration not stated)" endpoint_name=activation observed_measurement=inactive
molecule="OC1/C(=C/c2ccc(C(F)(F)F)cc2)N2CCC1CC2 (configuration not stated)" endpoint_name=activation observed_measurement=inactive
molecule=O=c1[nH]c(=S)n(-c2ccc(Cl)cc2)c(O)c1C=Nc1ccc(N2CCOCC2)cc1 endpoint_name=activation observed_measurement=inactive
molecule=CCOC(=O)[C@]12Cc3cc(Cl)ccc3[C@H]1N(Cc1ccccc1)C(=O)c1ccccc12 endpoint_name=activation observed_measurement=inactive

Give activation for each of the items listed below.
1. O=C1NCN(c2ccccc2)C12CCN(C(c1cc3ccccc3o1)c1nnnn1C1CCCCC1)CC2 (configuration not stated)
2. CC(=O)C1C2c3ccccc3O[C@@]1(C)N=c1s/c(=C/c3ccoc3)c(=O)n12 (some centres not stated)
3. COc1cccc(C(c2nnnn2C2CCCCC2)N2CCC3(CC2)C(=O)NCN3c2ccccc2)c1OC (configuration not stated)

Outgoing:
1: inactive; 2: inactive; 3: inactive

====

# Measurement notes: Cytotoxicity counterscreen for inhibitors of SARS-CoV-2 cell entry (AID 1645845); note: nearly all actives have a fitted effect of over 50% in size
# Test conditions: cell viability (SARS-CoV-2 entry assay cells); at 57.1 µM (top of the series) unless noted
Results filed as inconclusive are left out. Activity calls are given as the source filed them. The call rests on the fitted dose curve.
Endpoint name: outcome

Some compounds with recorded outcome:
compound="C[C@@H](O)[C@H]1C(=O)N2C(C(=O)[O-])=C(SC3Cn4cnc[n+]4C3)[C@H](C)[C@H]12 (stereo partly drawn)" endpoint_name=outcome observed_measurement="inactive [at 11.3 µM]"
compound=CC(=O)[O][Al][O]C(C)=O endpoint_name=outcome observed_measurement="inactive [at 11.3 µM]"
compound=CC(C)(C)CC(C)(C)c1cc(Cc2cc(C(C)(C)CC(C)(C)C)cc(-n3nc4ccccc4n3)c2O)c(O)c(-n2nc3ccccc3n2)c1 endpoint_name=outcome observed_measurement="inactive [at 5.25 µM]"
compound=C[C@@H]1C[C@H]2[C@@H]3CCC4=CC(=O)C=C[C@]4(C)[C@@]3(F)[C@@H](O)C[C@]2(C)[C@@]1(O)C(=O)COP(=O)(O)O endpoint_name=outcome observed_measurement="inactive [at 11.3 µM]"

Okay, next one:
Incoming: What does the data say about its outcome? Entry: "CC1(C)S[C@@H]2[C@H](N)C(=O)N2[C@@H]1C(=O)O"
Outgoing: inactive [at 5.25 µM]

FYI, the data here is from PubChem BioAssay (NCATS).
